experiment: NCI Yeast Anticancer Drug Screen. Data for the rad50 strain (AID 155);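 also: 0% = growth of vehicle-only cultures of the same strain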; settings: S. cerevisiae rad50 strain growth inhibition; at 50.0 µM (retest, dose inferred, filed as 5.0)
Compounds without any hit were thinned out: in the full panel of roughly 79,000, 15% have a hit. The source made the active and inactive calls. Rule as the data show it: active = growth inhibition above about 70%; inactive = the rest.
Please answer using one outcome listed in active, inactive

Here's what some known entries look like.
1) N#C/C(=C\C(Cl)=C/c1ccccc1)C(N)=S
active
2) COc1ccc2nc3cc([N+](=O)[O-])ccc3c(NCCO)c2c1
active
3) CCC(Sc1ccccc1[N+](=O)[O-])[N+](=O)[O-] (stereo unspecified)
inactive

Recorded call for CCCCCCCCCCCCNC(=O)NCC(OCC)OCC ?
active

Lab log entry: CC1=C(C(=O)Nc2ccccc2C)C(c2ccccc2F)C(C(=O)Nc2ccccc2C)=C(C)N1 — outcome as called in the assay?
inactive

Any idea what this test logged for O=c1cc(-c2cccc(OCc3ccccc3)c2)[nH]c2cc3c(cc12)OCO3 ?
inactive

* * *

assay: NCI Yeast Anticancer Drug Screen. Data for the mlh1 rad18 strain (AID 175); details: S. cerevisiae mlh1 rad18 strain growth inhibition; at 5.0 µM (retest, dose inferred, filed as 0.5)
Compounds without any hit were thinned out: in the full panel of roughly 79,000, 15% have a hit. Active and inactive are the calls of the source. Rule as the data show it: active = growth inhibition above about 70%; inactive = the rest.
Returns: one label drawn from true for active, false for inactive

1) Oc1cccc2cc(Br)cnc12
false
2) CCN(CC)CCNc1ccc(C)c2sc3c(OC)cccc3c(=O)c12
false
3) COc1c(I)cc(I)c(O)c1I
false
4) CC(C)C(=O)[O][Bi]([c]1ccccc1)[c]1ccccc1
false
5) Cc1ccc(S(=O)(=O)N/N=C2/CCC3(O)CC2(C)CCC2[C@H]3CC2(C)C)cc1 (stereo partly specified)
false
6) BrCc1ccccc1C[P+](c1ccccc1)(c1ccccc1)c1ccccc1
false

Called result for CCOC(=O)/C=C(/Cl)C(=O)OCC
false

State the result this test recorded for COC(=O)CCC(NC(=S)N/N=C(\C)c1cnc2ccccc2n1)C(=O)OC (stereo unspecified) .
false

Hi team, can someone confirm the assay call for O=C(c1ccccc1)C1N=NCC1c1ccc([N+](=O)[O-])cc1 (stereo unspecified) ?
false

Assay outcome for Cn1nc(-c2ccc3c(c2)OCO3)[n+]([O-])c2c(=O)n(C)c(=O)nc1-2 : what was it?
false

Hi, do you know how COc1ccc2c3c(c4cc(OC)c(OC)cc4c2c1)CN1CCC[C@H]1[C@@H]3O came out in this test?
true

* * *

experiment: NCI Yeast Anticancer Drug Screen. Data for the mec2-1 strain (AID 157); settings: S. cerevisiae mec2-1 strain, at 5.0 µM (retest, dose inferred, filed as 0.5), active compounds read high
This is part of a sample that, as a whole, favours compounds with a hit. Of some 79,000 tested, about 15% had one in any assay.
Listing of recorded growth inhibition by entry.
# value in %; strip the unit string

1) CS(=O)(=O)n1c(C(O)c2ccccc2)nc2ccccc21 (stereo unspecified)
10
2) CCN1CCC(O)(/C=C/c2ccccc2C)C(C(=O)/C=C/c2ccccc2C)C1 (stereo unspecified)
-2

growth inhibition reported for this molecule CN(C)c1ccc(/C=C2/Oc3ccc(Cl)cc3C2=O)cc1 : 25

In plain terms, C=C(C)[P+](C)(c1ccccc1)c1ccccc1 has a documented growth inhibition of -12

Documented growth inhibition of Oc1c(N2CCOCC2)cc(-c2cc(N3CCOCC3)c(O)c3ccccc23)c2ccccc12 : 35

Entry under test: CCOC(=O)C(C(=O)OCC)C(=O)c1ccc2c(c1)OCO2 . Its growth inhibition was 2
